This section presents molecules with their documented cell count values.
Tested on: Jurkat
Experiment: cell count relative to DMSO control (fraction of control); higher = more cells (less growth inhibition)
Conditions: 48 h
# output: bare number, no unit

Answered examples (3):
Cc1nnc(C(=O)NC(C)(C)c2nc(C(=O)NCc3ccc(F)cc3)c(O)c(=O)n2C)o1 [Raltegravir] (concentration: 25 µM) : 0.569
COc1ccccc1OCCNCC(O)COc1cccc2[nH]c3ccccc3c12 (centres undefined) [Carvedilol] (concentration: 25 µM) : 0.39
COC1=CC(=O)C[C@@H](C)[C@]12Oc1c(Cl)c(OC)cc(OC)c1C2=O [Griseofulvin] (concentration: 2.5 µM) : 0.865

Please look at the following molecule next.
What is its cell count for Jurkat? Entry: CC(C)Cn1cnc2c(N)nc3ccccc3c21 [Imiquimod] (concentration: 25 µM)
0.44

---

System: Jurkat
Assay: cell count relative to DMSO control (fraction of control); higher = more cells (less growth inhibition)
Conditions: 48 h
Structures can show the parent of a compound that is named as a salt.
This section presents compounds with their documented cell count values.
# output: bare number, no unit

Answered examples (5):
O=c1[nH]cnc2c1ncn2[C@H]1CC[C@@H](CO)O1 [Didanosine] (concentration: 25 µM) : 0.462
CC=CC(=O)N(CC)c1ccccc1C [Crotamiton] (concentration: 25 µM) : 0.809
CCN(CC)CCNC(=O)c1cc(Cl)c(N)cc1OC [Metoclopramide·HCl] (concentration: 25 µM) : 0.758
CCOC(=O)c1ccc(C#Cc2ccc3c(c2)C(C)(C)CCS3)nc1 [Tazarotene] (concentration: 25 µM) : 0.698
Nc1ccc(O)c(C(=O)O)c1 [Mesalamine (5-Aminosalicylic Acid)] (concentration: 25 µM) : 1

I'd like to know its cell count. The compound in question is Clc1cccc(Cl)c1NC1=NCCN1 [Clonidine·HCl] (concentration: 25 µM)
0.224

I'd like to know its cell count. The compound in question is CNCCC(Oc1ccc(C(F)(F)F)cc1)c1ccccc1 (stereo not drawn) [Fluoxetine·HCl] (concentration: 25 µM)
0.68

I'd like to know its cell count. The compound in question is CC(C)(C#N)c1cc(Cn2cncn2)cc(C(C)(C)C#N)c1 [Anastrozole] (concentration: 25 µM)
0.933

---

This section presents compounds with their documented cell count values.
System: Jurkat
Experiment: cell count relative to DMSO control (fraction of control); higher = more cells (less growth inhibition)
Details: 48 h
Structures can show the parent of a compound that is named as a salt.
# output: bare number, no unit

Nc1ncn([C@H]2C[C@H](O)[C@@H](CO)O2)c(=O)n1 [Decitabine] (concentration: 2.5 µM) : 0.363
Cc1cn([C@H]2C=C[C@@H](CO)O2)c(=O)[nH]c1=O [Stavudine] (concentration: 25 µM) : 0.764
CCN1CC(CCN2CCOCC2)C(c2ccccc2)(c2ccccc2)C1=O (stereo not given) [Doxapram·HCl] (concentration: 25 µM) : 1.01
NC[C@@H]1O[C@H](O[C@H]2[C@@H](O)[C@H](O[C@@H]3[C@@H](O)[C@H](N)C[C@H](N)[C@H]3O[C@H]3O[C@H](CN)[C@@H](O)[C@H](O)[C@H]3N)O[C@@H]2CO)[C@H](N)[C@@H](O)[C@@H]1O [Neomycin Sulfate] (concentration: 25 µM) : 0.944
Cc1nc(-c2ccc(OCC(C)C)c(C#N)c2)sc1C(=O)O [Febuxostat] (concentration: 25 µM) : 0.592
Cc1c(OCC(F)(F)F)ccnc1C[S+]([O-])c1nc2ccccc2[nH]1 (stereo not given) [Lansoprazole] (concentration: 25 µM) : 0.617

I'd like to know its cell count. The compound in question is CC(=O)NS(=O)(=O)c1ccc(N)cc1 [Sulfacetamide·Na] (concentration: 25 µM)
0.78

I'd like to know its cell count. The compound in question is C[C@](N)(Cc1ccc(O)c(O)c1)C(=O)O [Methyldopa Sesquihydrate (L-Α-Methyl-Dopa Sesquihyrate)] (concentration: 25 µM)
0.834

I'd like to know its cell count. The compound in question is CC#C[C@]1(O)CC[C@H]2[C@@H]3CCC4=CC(=O)CCC4=C3[C@@H](c3ccc(N(C)C)cc3)C[C@@]21C [Mifepristone] (concentration: 25 µM)
0.424

I'd like to know its cell count. The compound in question is O=C(CCCN1CC=C(n2c(=O)[nH]c3ccccc32)CC1)c1ccc(F)cc1 [Droperidol] (concentration: 25 µM)
0.812

I'd like to know its cell count. The compound in question is Nc1nc(Cl)nc2c1ncn2[C@H]1C[C@H](O)[C@@H](CO)O1 [Cladribine] (concentration: 250 nM)
0.268

I'd like to know its cell count. The compound in question is CC1COc2c(N3CCN(C)CC3)c(F)cc3c(=O)c(C(=O)O)cn1c23 (stereo not given) [Ofloxacin] (concentration: 25 µM)
0.989

I'd like to know its cell count. The compound in question is OCCN1CCN(CCCN2c3ccccc3Sc3ccc(C(F)(F)F)cc32)CC1 [Fluphenazine·HCl] (concentration: 2.5 µM)
0.701

I'd like to know its cell count. The compound in question is CO/N=C(\C(=O)N[C@@H]1C(=O)N2C(C(=O)O)=C(COC(C)=O)CS[C@H]12)c1csc(N)n1 [Cefotaxime Acid] (concentration: 25 µM)
0.957

I'd like to know its cell count. The compound in question is COc1cc2c(cc1OC)C(=O)C(CC1CCN(Cc3ccccc3)CC1)C2 (stereo not given) [Donepezil·HCl] (concentration: 25 µM)
0.487

I'd like to know its cell count. The compound in question is CN(C)CCC=C1c2ccccc2C=Cc2ccccc21 [Cyclobenzaprine·HCl] (concentration: 25 µM)
0.631

---

This section presents molecules with their documented mean cell size values.
System: Jurkat
Experiment: mean cell size (FSC-A) relative to DMSO control (fraction of control); higher = larger cells
Conditions: 48 h
# output: bare number, no unit

Answered examples (4):
CC(C)C[C@H](NC(=O)[C@@H](Cc1c[nH]c2ccccc12)NC(=O)[C@H](Cc1ccc(O)cc1)NC(=O)[C@H](CO)NC(=O)[C@H](Cc1c[nH]c2ccccc12)NC(=O)[C@H](Cc1cnc[nH]1)NC(=O)[C@@H]1CCC(=O)N1)C(=O)N[C@@H](CCCN=C(N)N)C(=O)N1CCC[C@H]1C(=O)NCC(N)=O [Triptorelin Acetate] (concentration: 25 µM) : 0.997
COc1ccccc1OCCNCC(O)COc1cccc2[nH]c3ccccc3c12 (stereo not given) [Carvedilol] (concentration: 25 µM) : 1.01
N#Cc1ccc(C(c2ccc(C#N)cc2)n2cncn2)cc1 [Letrozole] (concentration: 25 µM) : 1.01
Cc1cc2c(s1)Nc1ccccc1N=C2N1CCN(C)CC1 [Olanzapine] (concentration: 25 µM) : 1.02

I'd like to know its mean cell size. The molecule in question is C[C@]12CCC(=O)C=C1CC[C@@H]1[C@@H]2[C@@H](O)C[C@@]2(C)[C@H]1CC[C@]2(O)C(=O)CO [Hydrocortisone] (concentration: 25 µM)
0.917

---

Test system: Jurkat
Assay: cell count relative to DMSO control (fraction of control); higher = more cells (less growth inhibition)
Details: 48 h
This section presents molecules with their documented cell count values.
# output: bare number, no unit

Answered examples (3):
C=CC1=C(C(=O)O)N2C(=O)[C@@H](NC(=O)/C(=N\O)c3csc(N)n3)[C@H]2SC1 [Cefdinir] (concentration: 25 µM) : 0.765
C[C@H]1[C@H](NC(=O)/C(=N\OC(C)(C)C(=O)O)c2csc(N)n2)C(=O)N1S(=O)(=O)O [Aztreonam] (concentration: 25 µM) : 0.64
CCCC(CCC)C(=O)O [Valproic Acid] (concentration: 25 µM) : 0.728

Please look at the following molecule next.
I'd like to know its cell count. The molecule in question is CO/N=C(\C(=O)N[C@@H]1C(=O)N2C(C(=O)OCOC(=O)C(C)(C)C)=C(/C=C\c3scnc3C)CS[C@H]12)c1csc(N)n1 [Cefditoren Pivoxil] (concentration: 25 µM)
0.77

---

Tested on: Jurkat
Experiment: mean cell size (FSC-A) relative to DMSO control (fraction of control); higher = larger cells
Details: 48 h
Where a name gives a salt, the structure may show the parent alone.
This section presents molecules with their documented mean cell size values.
# output: bare number, no unit

Cc1nnc(C(=O)NC(C)(C)c2nc(C(=O)NCc3ccc(F)cc3)c(O)c(=O)n2C)o1 [Raltegravir] (concentration: 25 µM) : 0.948
CN(C)C(=N)NC(=N)N [Metformin·HCl] (concentration: 25 µM) : 0.954
C[C@]12C=CC(=O)C=C1CC[C@@H]1[C@@H]2C(=O)C[C@@]2(C)[C@H]1CC[C@]2(O)C(=O)CO [Prednisone] (concentration: 25 µM) : 1
CC1Cc2ccccc2N1NC(=O)c1ccc(Cl)c(S(N)(=O)=O)c1 (configuration not stated) [Indapamide] (concentration: 25 µM) : 0.978
S=c1[nH]cnc2nc[nH]c12 [Mercaptopurine Hydrate] (concentration: 25 µM) : 1.08
CC(C)(C)NCC(O)COc1cccc2c1CC(O)C(O)C2 (configuration not stated) [Nadolol] (concentration: 25 µM) : 0.928

I'd like to know its mean cell size. The molecule in question is Cc1ncc([N+](=O)[O-])n1CCO [Metronidazole] (concentration: 25 µM)
0.928

The measured values listed here are drawn from the supplement of paper PMC4709259.
